Tested on: HepaRG® cells
Assay: Hepatotoxicity assay
Format: cell-based
Conditions: 0.1 μM, 48 h
property: Number of cells
Form rule: numeric answer, no unit written next to it.

Use the examples below as a reference point.
compound	Number of cells
C/C(=C/CC/C(C)=C/CC/C(C)=C/CCC1(C)CCc2cc(O)c(C)c(C)c2O1)CO (centres unmarked) [Compound 33]	4363
C/C(=C\CC/C(C)=C/CCC1(C)CCc2c(C)c(O)c(C)c(C)c2O1)CCC=C(CO)CO (centres unmarked) [Compound 1]	4389
C/C(=C\CC/C(C)=C/CCC1(C)CCc2cc(O)c(C)c(C)c2O1)CCC=C(CO)CO (centres unmarked) [Compound 34]	4212
C/C(=C\CC/C(C)=C/CCC1(C)CCc2c(C)c(O)cc(C)c2O1)CCC=C(CO)CO (centres unmarked) [Compound 9]	4429

--- query ---
Any idea what Number of cells was measured for CC(c1cc2ccccc2s1)N(O)C(N)=O (centres unmarked) [Zileuton, reference compound] ? 4313
